# target.system: Aβ1-42 peptide (Homo sapiens, UniProt P05067)
# Sequence (P05067 672-713 limits assumed): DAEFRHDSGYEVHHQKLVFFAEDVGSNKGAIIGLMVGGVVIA
# measurement.protocol: Thioflavin T spectrofluorescence assay (ThT-assay): inhibition of Aβ1-42 aggregation (% inhibition at 330 μM; IC50 from dilution series)
# condition.parameters: 24 h, read-out: Inhibition at 330 μM [%], ThT assay; 330 μM small molecule, 33 μM Aβ1-42 (10:1), 24 hrs at 37° C.; mean ± standard deviation of two independent experiments

molecule | inhibition at 330 µM
COc1cc(Nc2ccc3c4c(n(C)c3c2)CCC(OC)C4)ccc1F (stereo not drawn) [Example 124] | 79.1%
COc1ccc(Nc2ccc3c(C4CCNCC4)cn(C)c3c2)cc1OC [Example 97] | 83.8%
Cn1cc(C2CCNCC2)c2ccc(Nc3ccc(F)c(F)c3)nc21 [Example 67] | 87.8%
COc1ccc(Nc2ccc3c4c(n(C)c3n2)CCC(OC(C)C)C4)cc1OC (stereo not drawn) [Example 131] | 91.4%
CNC1CCc2[nH]c3nc(Nc4ccc(C(F)(F)F)nc4)ccc3c2C1 (stereo not drawn) [Example 25] | 63.4%
CNC1CCc2c(c3ccc(Nc4cc(F)c(F)c(F)c4)nc3n2C)C1 (stereo not drawn) [Example 30] | 84.3%
CN1CCc2ccc(Nc3ccc4c5c(n(C)c4n3)CCC5)cc2C1 [Example 174] | 87.2%
CN1CCC(c2c[nH]c3ccc(Nc4ccc5c(C6CCNCC6)c[nH]c5c4)cc23)CC1 [Example 64] | 95.4%
Cn1c2c(c3ccc(Nc4ccc5c(c4)OCCO5)nc31)CCC2 [Example 173] | 90.1%

* * *

# target.system: Aβ1-42 peptide (Homo sapiens)
# measurement.protocol: Thioflavin T spectrofluorescence assay (ThT-assay): inhibition of Aβ1-42 aggregation (% inhibition at 330 μM; IC50 from dilution series)
# condition.parameters: 24 h, read-out: Inhibition at 330 μM [%], ThT assay; 330 μM small molecule, 33 μM Aβ1-42 (10:1), 24 hrs at 37° C.; mean ± standard deviation of two independent experiments
Think of 90% as a floor: if inhibition at 330 µM stands on it or above, it is t; beneath it, f.

molecule | target.system | cat
Cn1c2c(c3cc(Nc4ccc(F)c(F)c4)ccc31)CS(=O)(=O)CC2 [Example 176] | Aβ1-42 peptide (Homo sapiens) | f
CN(c1ccc2c(c1)c(C1CCNCC1)cn2C)c1ccc2c(C3CCNCC3)cn(C)c2c1 [Example 54] | Aβ1-42 peptide (Homo sapiens) | t
CNC1CCc2[nH]c3ccc(Nc4ccc(OC)c(OC)c4)cc3c2C1 (stereo not drawn) [Example 106] | Aβ1-42 peptide (Homo sapiens) | f
Cn1c2c(c3ccc(Nc4ccc5c(c4)OCCO5)cc31)CNCC2 [Example 202] | Aβ1-42 peptide (Homo sapiens) | f
CN1CCC(c2cn(C)c3cc(Nc4cccc(N5CCOCC5)c4)ccc23)CC1 [Example 75] | Aβ1-42 peptide (Homo sapiens) | t
CNC1CCc2c(c3ccc(Nc4ccc5c(c4)OCCO5)nc3n2C)C1 (racemic) [Example 156] | Aβ1-42 peptide (Homo sapiens) | f
c1cc2ncc(Nc3ccc4cc[nH]c4n3)cc2[nH]1 [Example 13] | Aβ1-42 peptide (Homo sapiens) | t

* * *

# target.system: Aβ1-42 peptide (Homo sapiens, UniProt P05067)
# measurement.protocol: Thioflavin T spectrofluorescence assay (ThT-assay): inhibition of Aβ1-42 aggregation (% inhibition at 330 μM; IC50 from dilution series)
# condition.parameters: 24 h, read-out: Inhibition at 330 μM [%], ThT assay; 330 μM small molecule, 33 μM Aβ1-42 (10:1), 24 hrs at 37° C.; mean ± standard deviation of two independent experiments
The label depends only on inhibition at 330 µM: Yes if it is at least 80%, No if it is smaller.

molecule | cat
CN1CCc2ccc(Nc3ccc4c5c(n(C)c4n3)CCCC5)cc2C1 [Example 201] | Yes
c1cc2c(C3CCNCC3)c[nH]c2nc1NCC1CCNCC1 [Example 50] | No
CN1CCC(c2c[nH]c3cc(Nc4ccc(N5CCOCC5)cc4)ccc23)CC1 [Example 162] | Yes
c1cc2c(cc1Nc1ccc3c(C4CCNCC4)c[nH]c3c1)OCO2 [Example 41] | Yes

* * *

# target.system: Aβ1-42 peptide (Homo sapiens)
# measurement.protocol: Thioflavin T spectrofluorescence assay (ThT-assay): inhibition of Aβ1-42 aggregation (% inhibition at 330 μM; IC50 from dilution series)
# condition.parameters: IC50 μM 1st assay, ThT assay, dilution series 330 μM to 0.08 μM; 1st assay
Below is a list of entries, each paired with its recorded IC50 value.
outcome.measure: IC50 (µM)

compound | observed.measurement
CNC1CCc2c(c3ccc(Nc4ccc(F)c(F)c4)nc3n2C)C1 (single isomer, unassigned) [Example 214a] | 35.4
CNC1CCc2c(c3ccc(Nc4ccc5c(c4)OCCO5)nc3n2C)C1 (single isomer, unassigned) [Example 217b] | 6.6
CNC1CCc2c(c3ccc(Nc4ccc(N5CCOCC5)cc4)nc3n2C)C1 (single isomer, unassigned) [Example 216a] | 99.3
CNC1CCc2c(c3ccc(Nc4ccc5c(c4)OCCO5)nc3n2C)C1 (racemic) [Example 156] | 39.7
CNC1CCc2c(c3ccc(Nc4ccc(N5CCOCC5)cc4)nc3n2C)C1 (single isomer, unassigned) [Example 216b] | 45

* * *

# target.system: Aβ1-42 peptide (Homo sapiens)
# measurement.protocol: Thioflavin T spectrofluorescence assay (ThT-assay): inhibition of Aβ1-42 aggregation (% inhibition at 330 μM; IC50 from dilution series)
# condition.parameters: 24 h, read-out: Inhibition at 330 μM [%], ThT assay; 330 μM small molecule, 33 μM Aβ1-42 (10:1), 24 hrs at 37° C.; mean ± standard deviation of two independent experiments
Param threshold (70%) applies to inhibition at 330 µM; output True when value >= threshold, False when value < threshold.

compound | target.system | cat
CNC1CCc2[nH]c3nc(Nc4cc(F)c(F)cc4F)ccc3c2C1 (stereo not shown) | Aβ1-42 peptide (Homo sapiens) | True
c1cc2c(cc1Nc1ccc3c(c1)OCO3)OCO2 | Aβ1-42 peptide (Homo sapiens) | True
c1cc(Nc2ccc3c(C4CCNCC4)c[nH]c3c2)cc(N2CCOCC2)c1 | Aβ1-42 peptide (Homo sapiens) | True
c1ccc2c(c1)CCN(c1ccc3c(C4CCNCC4)c[nH]c3c1)C2 | Aβ1-42 peptide (Homo sapiens) | True
Fc1ccc(Nc2ccc3cc[nH]c3n2)cc1 | Aβ1-42 peptide (Homo sapiens) | False
Fc1ccc(Nc2ccc3[nH]cc(C4CCNCC4)c3c2)cc1F | Aβ1-42 peptide (Homo sapiens) | True
CN1CCN(c2ccc(Nc3ccc4c(c3)c3c(n4C)CCS(=O)(=O)C3)cc2)CC1 | Aβ1-42 peptide (Homo sapiens) | False
COc1ccc(Nc2ccc3[nH]cc(C4CCN(C)CC4)c3c2)cc1OC | Aβ1-42 peptide (Homo sapiens) | False
COC1CCc2[nH]c3cc(Nc4ccc5c(c4)OCCO5)ccc3c2C1 (stereo not shown) | Aβ1-42 peptide (Homo sapiens) | True
Cn1c2c(c3ccc(Nc4ccc5c(c4)OCC(=O)N5)nc31)CCCC2 | Aβ1-42 peptide (Homo sapiens) | True
N#Cc1c[nH]c2nc(Nc3cnc4c(C5CCNCC5)c[nH]c4c3)ccc12 | Aβ1-42 peptide (Homo sapiens) | True
Cn1c2c(c3cc(Nc4ccc(N5CCOCC5)cc4)ccc31)CS(=O)(=O)CC2 | Aβ1-42 peptide (Homo sapiens) | False
Fc1cc(F)cc(Nc2ccc3cc[nH]c3n2)c1 | Aβ1-42 peptide (Homo sapiens) | False
CN1CCC(c2c[nH]c3cc(Nc4ccc5ncn(C)c5c4)ccc23)CC1 | Aβ1-42 peptide (Homo sapiens) | False
CN1CCC(c2cn(C)c3nc(Nc4ccc5c(c4)OCCO5)ccc23)CC1 | Aβ1-42 peptide (Homo sapiens) | True
CNC1CCc2c(c3cc(Nc4ccc(F)c(F)c4)cnc3n2C)C1 (stereo not shown) | Aβ1-42 peptide (Homo sapiens) | False
CNC1CCc2c(c3ccc(Nc4cccc(N5CCOCC5)c4)nc3n2C)C1 (stereo not shown) | Aβ1-42 peptide (Homo sapiens) | True
c1cc2c(C3CCNCC3)c[nH]c2cc1Nc1ccc2[nH]cc(C3CCNCC3)c2c1 | Aβ1-42 peptide (Homo sapiens) | True

* * *

# target.system: Aβ1-42 peptide (Homo sapiens)
# measurement.protocol: Thioflavin T spectrofluorescence assay (ThT-assay): inhibition of Aβ1-42 aggregation (% inhibition at 330 μM; IC50 from dilution series)
# condition.parameters: 24 h, read-out: Inhibition at 330 μM [%], ThT assay; 330 μM small molecule, 33 μM Aβ1-42 (10:1), 24 hrs at 37° C.; mean ± standard deviation of two independent experiments

compound | inhibition at 330 µM
COc1ccc(Nc2ccc3c4c(n(C)c3n2)CCCC4)cc1OC | 90.5%
CN1CCN(C(=O)c2ccc(Nc3ccc(F)cc3)cc2)CC1 | 12.6%
CNC1CCc2c(c3ccc(Nc4ccc(F)c(F)c4)nc3n2C)C1 (racemic) | 93.4%
c1cc2c(cc1Nc1ccc3c(C4CCNCC4)c[nH]c3n1)CCC2 | 94.8%
c1cc(N2CCOCC2)ccc1Nc1ccc2c(C3CCNCC3)c[nH]c2n1 | 86.5%
